- assay: reduction of polyQ htt aggregates in cells – imaging, exon1htt(103Q)mCFP cells, high-content imaging, primary screen (AID 483);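 also: compound exposure lasted 3 days before fixation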
- conditionParameters: exon1htt(103Q)mCFP cell line, aggregate imaging, at 2 µM; stronger effect = higher value
Parameter inhibition of aggregation: see the listing below.
The figure you give is taken to be in %; do not add the unit.

Examples with their reported inhibition of aggregation follow.
INSERT INTO measurements (compound, readoutname, valueobserved) VALUES
  ('CCOC(=O)CSc1nnc(-c2ccc(S(=O)(=O)N3CCOCC3)cc2)n1-c1ccccc1', 'inhibition of aggregation', -7.9),
  ('COc1ccc(CC(=O)Nc2ccc(OC)c(NC(=O)c3ccco3)c2)cc1', 'inhibition of aggregation', 4),
  ('O=C(OCC#CCSc1nnc(-c2ccncc2)o1)c1cccs1', 'inhibition of aggregation', -4.1),
  ('CC1(C)OC(=O)N(c2cccnc2)C1(C)O (stereo unspecified)', 'inhibition of aggregation', -2.8),
  ('COc1ccc(CN2C(=O)c3cccnc3C2Nc2cc(Cl)ccc2OC)cc1 (stereo unspecified)', 'inhibition of aggregation', 0.1),
  ('N#Cc1nc(COc2ccccc2)oc1NCCN1CCOCC1', 'inhibition of aggregation', -34.9),
  ('O=C(NC1CCCCCC1)c1c(F)c(F)c(F)c(F)c1F', 'inhibition of aggregation', 3.9),
  ('Nc1nonc1C(=O)NCCNCc1cc(Br)ccc1OCc1ccccc1F', 'inhibition of aggregation', 18.5);

Task: Given O=C(O)C1CC(=O)N(Cc2ccccc2)C1 (stereo unspecified) , state its recorded inhibition of aggregation.
Result: -0.4

Task: Given CCOc1ccc(N(CC(=O)Nc2ccc(F)c(F)c2)S(=O)(=O)c2c(C)noc2C)cc1 , state its recorded inhibition of aggregation.
Result: 25.8

Task: Given Cc1cc(C)c2cc3c(ccn3C3OC[C@H](O)[C@H](O)[C@H]3O)cc2n1 (stereo partly specified) , state its recorded inhibition of aggregation.
Result: -19.6

----------
- assay: blockers of RIG-like receptor reporter activation – cell-based, Sendai virus stimulus, luciferase, 10K MLSCN set, TLR/RLR signaling modifier project, primary screen (AID 602276);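 also: firefly luciferase from ISG56 promoter only with Renilla not read in this screen; 0% = Sendai virus plus DMSO and 100% = medium plus DMSO without virus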
- conditionParameters: HEK293 RL24 IRF3 luciferase reporter, at 10 µM, stronger effect = higher value
readoutName: inhibition (%)
The figure you give is taken to be in %; do not add the unit.

Examples with their reported inhibition follow.
INSERT INTO results (compound, readoutname, valueobserved) VALUES
  ('NC(=O)C1CCN(CC(=O)N2c3ccccc3CCc3ccccc32)CC1', 'inhibition', 15.6),
  ('CSCC[C@@H](Nc1nc(-c2ccccc2)nc2c1oc1ccccc12)C(=O)O', 'inhibition', 4.35),
  ('Nc1nc(N2CCN(C/C=C/c3ccccc3)CC2)nc2ccccc12', 'inhibition', 4.65);

Task: Given Cc1ccc(Nc2cc(-n3nc(C)cc3C)ncn2)cc1 , state its recorded inhibition.
Result: -0.371

Task: Given O=C(CCc1ccc(S(=O)(=O)N2CCOCC2)cc1)NCCc1ccccn1 , state its recorded inhibition.
Result: -4.86

Task: Given N#CC1=C(SCc2ccccc2)NC(=O)C(C#N)C12CCCC2 (stereo unspecified) , state its recorded inhibition.
Result: 2.21

Task: Given c1ccc(-c2noc(C34CC5CC(CC(C5)C3)C4)n2)nc1 , state its recorded inhibition.
Result: -32.9

Task: Given C=CCSc1nc2c(c(=O)[nH]c(=O)n2C)n1CC , state its recorded inhibition.
Result: -5.1

Task: Given COc1ccc(-c2c(=O)n(OCc3ccccn3)c3ccccc3[n+]2[O-])cc1OC , state its recorded inhibition.
Result: -2.61
